These data points were gathered from the supplement of paper PMC11246515.

I'd appreciate it if you could supply total protein half-life in vivo values for the items below.
# Assay summary: total protein half-life in vivo (active degradation + dilution); higher = more stable protein
# Particulars: wild type E. coli NCM3722; growth: P-lim chemostat; doubling time 6 h
Just the number please, in h, no unit attached.

Query block: Return total protein half-life in vivo for the following sequence: MRTISYSEARQNLSATMMKAVEDHAPILITRQNGEACVLMSLEEYNSLEETAYLLRSPANARRLMDSIDSLKSGKGTEKDIIE
Result block: 1.67

Query block: Write down total protein half-life in vivo measured for item MTDNPNKKTFWDKVHLDPTMLLILLALLVYSALVIWSASGQDIGMMERKIGQIAMGLVIMVVMAQIPPRVYEGWAPYLYIICIILLVAVDAFGAISKGAQRWLDLGIVRFQPSEIAKIAVPLMVARFINRDVCPPSLKNTGIALVLIFMPTLLVAAQPDLGTSILVALSGLFVLFLSGLSWRLIGVAVVLVAAFIPILWFFLMHDYQRQRVMMLLDPESDPLGAGYHIIQSKIAIGSGGLRGKGWLHGTQSQLEFLPERHTDFIFAVLAEELGLVGILILLALYILLIMRGLWIAARAQTTFGRVMAGGLMLILFVYVFVNIGMVSGILPVVGVPLPLVSYGGSALIVLMAGFGIVMSIHTHRKMLSKSV [P0ABG7]
Result block: 5.99

Query block: For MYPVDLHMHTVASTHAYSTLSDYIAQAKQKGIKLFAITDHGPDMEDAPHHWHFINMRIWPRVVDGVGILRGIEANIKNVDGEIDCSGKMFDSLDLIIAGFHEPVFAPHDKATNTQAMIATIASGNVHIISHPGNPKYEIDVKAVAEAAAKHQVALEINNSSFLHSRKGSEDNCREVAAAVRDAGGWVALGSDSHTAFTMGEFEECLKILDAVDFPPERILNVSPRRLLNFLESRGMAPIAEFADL , write its total protein half-life in vivo.
Result block: 5.73

----------
# Assay summary: total protein half-life in vivo (active degradation + dilution); higher = more stable protein
# Particulars: E. coli NCM3722 delta-clpP delta-lon delta-hslV; growth: N-lim chemostat; doubling time 6 h
Threshold rule: total protein half-life in vivo greater than or equal to 5 h is 1; below that, -1.

Query block: Does the sequence MTTQTVSGRRYFTKAWLMEQKSLIALLVLIAIVSTLSPNFFTINNLFNILQQTSVNAIMAVGMTLVILTSGIDLSVGSLLALTGAVAASIVGIEVNALVAVAAALALGAAIGAVTGVIVAKGRVQAFIATLVMMLLLRGVTMVYTNGSPVNTGFTENADLFGWFGIGRPLGVPTPVWIMGIVFLAAWYMLHHTRLGRYIYALGGNEAATRLSGINVNKIKIIVYSLCGLLASLAGIIEVARLSSAQPTAGTGYELDAIAAVVLGGTSLAGGKGRIVGTLIGALILGFLNNGLNLLGVSSYYQMIVKAVVILLAVLVDNKKQ [P0AGI1] have recorded total protein half-life in vivo that is 5 h or more?
Result block: 1

Query block: Does the reported total protein half-life in vivo for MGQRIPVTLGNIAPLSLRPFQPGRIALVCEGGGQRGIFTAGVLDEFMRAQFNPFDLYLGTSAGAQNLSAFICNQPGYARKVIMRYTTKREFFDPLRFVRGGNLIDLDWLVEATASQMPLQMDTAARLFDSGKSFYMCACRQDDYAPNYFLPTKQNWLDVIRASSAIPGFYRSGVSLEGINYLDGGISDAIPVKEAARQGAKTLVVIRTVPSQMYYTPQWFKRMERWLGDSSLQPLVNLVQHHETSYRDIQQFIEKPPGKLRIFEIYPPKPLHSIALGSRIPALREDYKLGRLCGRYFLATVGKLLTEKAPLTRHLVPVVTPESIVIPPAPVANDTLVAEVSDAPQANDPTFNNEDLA fall at or above the 5 h mark?
Result block: 1

Query block: Check the entry MKSLSYKRIYKSQEYLATLGTIEYRSLFGSYSLTVDDTVFAMVSDGELYLRACEQSAQYCVKHPPVWLTYKKCGRSVTLNYYRVDESLWRNQLKLVRLSKYSLDAALKEKSTRNTRERLKDLPNMSFHLEAILGEVGIKDVRALRILGAKMCWLRLRQQNSLVTEKILFMLEGAIIGIHEAALPVARRQELAEWADSLTPKQEFPAELE : does total protein half-life in vivo equal or exceed 5 h?
Result block: 1

Query block: Hello, I need to know if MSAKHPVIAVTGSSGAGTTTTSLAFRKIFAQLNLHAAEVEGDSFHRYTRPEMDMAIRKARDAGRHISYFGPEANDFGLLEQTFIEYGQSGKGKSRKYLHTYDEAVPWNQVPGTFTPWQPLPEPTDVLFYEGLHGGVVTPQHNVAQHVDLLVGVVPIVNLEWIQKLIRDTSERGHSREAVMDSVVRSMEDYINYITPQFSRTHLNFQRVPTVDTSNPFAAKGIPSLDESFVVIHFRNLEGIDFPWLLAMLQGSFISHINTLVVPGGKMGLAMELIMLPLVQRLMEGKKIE [P0AEX5] has measured total protein half-life in vivo not below 5 h. Thanks!
Result block: 1

Query block: # bool: total protein half-life in vivo of MRFIIRTVMLIALVWIGLLLSGYGVLIGSKENAAGLGLQCTYLTARGTSTVQYLHTKSGFLGITDCPLLRKSNIVVDNG [Q2MB16] >= 5 h
Result block: 1

Query block: Is it the case that MPSLSKEAALVHEALVARGLETPLRPPVHEMDNETRKSLIAGHMTEIMQLLNLDLADDSLMETPHRIAKMYVDEIFSGLDYANFPKITLIENKMKVDEMVTVRDITLTSTCEHHFVTIDGKATVAYIPKDSVIGLSKINRIVQFFAQRPQVQERLTQQILIALQTLLGTNNVAVSIDAVHYCVKARGIRDATSATTTTSLGGLFKSSQNTRHEFLRAVRHHN [P0A6T5] has total protein half-life in vivo reaching or exceeding 5 h?
Result block: -1

Query block: Answer whether total protein half-life in vivo of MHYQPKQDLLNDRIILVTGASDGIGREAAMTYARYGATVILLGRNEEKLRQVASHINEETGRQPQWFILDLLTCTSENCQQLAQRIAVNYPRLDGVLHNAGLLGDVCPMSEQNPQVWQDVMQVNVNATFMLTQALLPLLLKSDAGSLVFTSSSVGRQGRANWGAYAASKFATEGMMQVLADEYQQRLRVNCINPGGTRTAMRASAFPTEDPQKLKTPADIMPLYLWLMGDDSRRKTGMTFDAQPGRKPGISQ is greater than or equal to 5 h.
Result block: -1

Query block: Could you tell me if the measured total protein half-life in vivo of MLEMLMQWYRRRFSDPEAIALLVILVAGFGIIFFFSGLLAPLLVAIVLAYLLEWPTVRLQSIGCSRRWATSIVLVVFVGILLLMAFVVLPIAWQQGIYLIRDMPGMLNKLSDFAATLPRRYPALMDAGIIDAMAENMRSRMLTMGDSVVKISLASLVGLLTIAVYLVLVPLMVFFLLKDKEQMLNAVRRVLPRNRGLAGQVWKEMNQQITNYIRGKVLEMIVVGIATWLGFLLFGLNYSLLLAVLVGFSVLIPYIGAFVVTIPVVGVALFQFGAGTEFWSCFAVYLIIQALDGNLLVPVLFSEAVNLHPLVIILSVVIFGGLWGFWGVFFAIPLATLIKAVIHAWPDGQIAQE [P0AFI9] reaches 5 h or more?
Result block: 1

Query block: Threshold query (total protein half-life in vivo >= 5 h) on MAMYQNMLVVIDPNQDDQPALRRAVYLHQRIGGKIKAFLPIYDFSYEMTTLLSPDERTAMRQGVISQRTAWIHEQAKYYLNAGVPIEIKVVWHNRPFEAIIQEVISGGHDLVLKMAHQHDRLEAVIFTPTDWHLLRKCPSPVWMVKDQPWPEGGKALVAVNLASEEPYHNALNEKLVKETIELAEQVNHTEVHLVGAYPVTPINIAIELPEFDPSVYNDAIRGQHLLAMKALRQKFGINENMTHVEKGLPEEVIPDLAEHLQAGIVVLGTVGRTGISAAFLGNTAEQVIDHLRCDLLVIKPDQYQTPVELDDEEDD [P0AAC0]
Result block: -1
